- testedTarget: human LAP-TGFβ1 expressed on P3U1 cells (human, UniProt P01137 30-390)
- Sequence (P01137 30-390): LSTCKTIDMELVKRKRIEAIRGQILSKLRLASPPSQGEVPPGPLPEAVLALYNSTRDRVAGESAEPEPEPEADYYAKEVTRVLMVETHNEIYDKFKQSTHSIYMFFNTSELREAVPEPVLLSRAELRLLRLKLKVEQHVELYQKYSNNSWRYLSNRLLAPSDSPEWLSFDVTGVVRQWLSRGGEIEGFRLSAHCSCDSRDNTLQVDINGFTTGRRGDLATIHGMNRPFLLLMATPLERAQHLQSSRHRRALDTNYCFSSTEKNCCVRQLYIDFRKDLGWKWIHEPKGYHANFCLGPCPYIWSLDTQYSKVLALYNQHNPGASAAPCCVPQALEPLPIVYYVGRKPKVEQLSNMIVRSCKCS
- testMethodNotes: cell-based or functional assay

# binder, Average EC50 [µg/mL]
records = [
    ("19BLM (antibody, human IgG1, kappa, L234A L235A, V domains shown, IgG1 L234A L235A D265S/kappa; also called 82BLH; 55BMD) VH: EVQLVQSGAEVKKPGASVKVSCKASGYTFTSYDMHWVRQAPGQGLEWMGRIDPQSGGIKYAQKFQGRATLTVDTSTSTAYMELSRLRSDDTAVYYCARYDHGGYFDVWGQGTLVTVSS VL: DIQMTQSPSSLSASVGDRVTITCRASQDIYNYLNWYQQKPGKAVKLLIYYTSYLETGVPSRFSGSGSGTDYTLTISSLQPEDFATYFCQQGDTLPWTFGQGTKLEIKR", 0.179),
]

Origin of the recorded values: patent US20230272056A1
